- Tested on: Mycobacterium tuberculosis
- test_summary: microbe, parasite or virus in culture
- particulars: H37Rv, 168 h
Reported log10(MIC) is given for each of the following compounds.
Could you please treat all values as log10 of MIC in µg/mL?

O=C(Nc1ccc(F)c(F)c1F)NC1CCCC1 | 1.70
O=C(NCCc1ccccc1)NC1C2CC3CC(C2)CC1C3 (configuration not stated) | -2.00

For `CCCCCCCNC(=O)Nc1ccc(C)c(Cl)c1` , what is its reported log10(MIC)? 0.49

Another: Cc1ccc(NC(=O)NC(C)CCc2ccccc2)cc1Cl (configuration not stated) 0.78

Another: `CC(C)CCOc1ccc(NC(=O)Nc2ccc(OCCC(C)C)cc2)cc1` 2.30

Another: CCCCCCCNC(=O)NC1C2CC3CC(C2)CC1C3 (configuration not stated) -0.70

Ref: ChEMBL document CHEMBL1817626
